target: T1, QIEKLVEAKSQIQ; assay: ELISA, immobilized peptide QIEKLVEAKSQIQ
T1 construct: member of the group m41; position 504 is glycine in SEMG2 and the sheet prints alanine there
T1 peptide: QIEKLVEAKSQIQ
endpoint: OD450 absorbance

| binder | endpoint | reported-result |
| --- | --- | --- |
| MM08 (antibody, IgG1, V domains shown) VH: QVQLQQPGAELVRPGASVKLSCKSSDYTFTRYWMNWVKQRPGQGLEWIGMIDPSDSETHHNQMFKDKATLTVDKSSSTAYMQLSSLTSEDSAVYFCARYLGGKEGSFDYWGQGTTLTVSS VL: DIVLTQSPSSLAVSAGERVTMSCKSSQSLFNSRTRKNYLAWYQQKPGQSPKLLLYWASTRESGVPDRFTGSGSGTDFTLTISSVKTEDLAVYYCKQSYELPWTFGGGTKLEMKR | OD450 absorbance | 0.824 |

Origin of values: patent US20230080534A1
